Test: Pharmacokinetics study in mice
Format: in vivo, mouse
Details: C57B6/J, mouse, brain and plasma, 3 mg/kg; mice, oral administration; read-out: brain-to-plasma ratio
MEASURED QUANTITY: Kp
Reply: number alone, nothing else.

I have this compound here, "CCS(=O)(=O)c1ccccc1C(=O)N1CCN(c2nc3ccc(F)cc3s2)C[C@@H]1C" , and I need its recorded Kp.
0.25

---

Target: h-AC (Homo sapiens (Human))
Test: biochemical
Conditions: read-out: h-AC inh (%) 30 μM
MEASURED QUANTITY: inhibition at 30 µM
Show the value, then the unit it is measured in.

Before answering, review these 3 worked examples.
MOLECULE | MEASURED QUANTITY | ENDPOINT RESULT
O=C(c1ccccc1S(=O)(=O)C1CCC1)N1CCN(c2nc3ccc(F)cc3s2)CC1 [Compound 12] | inhibition at 30 µM | -3%
CCCS(=O)(=O)c1ccccc1C(=O)N1CCN(c2nc3ccc(F)cc3o2)C[C@@H]1C [Compound 28] | inhibition at 30 µM | -11%
CCS(=O)(=O)c1ccccc1C(=O)N1CCN(c2nc3ccc(F)cc3s2)[C@H](C)C1 [Compound 24] | inhibition at 30 µM | 1%

I have this molecule here, CCCS(=O)(=O)c1ccccc1C(=O)N1CCN(c2nc3ccc(F)c(F)c3s2)C[C@@H]1C [Compound 37] , and I need its recorded inhibition at 30 µM.
9%

---

Assay: Pharmacokinetics study in mice
Format: in vivo, mouse
Settings: C57B6/J, 10 mg/kg; C57 mouse, po 10 mpk, brain
MEASURED QUANTITY: Cmax (ng/mL)
Dear colleague, please return just the value in ng/mL, with no unit written.

I have this compound here, "CCS(=O)(=O)c1ccccc1C(=O)N1CCN(c2nc3ccc(F)cc3s2)C[C@@H]1C" , and I need its recorded Cmax.
392

---

Test: Pharmacokinetics study in mice
Type: in vivo, mouse
Conditions: C57B6/J, 10 mg/kg; C57 mouse, po 10 mpk, plasma; read-out: AUC
MEASURED QUANTITY: AUC (ng·h/mL)
Dear colleague, please return just the value in ng·h/mL, with no unit written.

I have this molecule here, "CCS(=O)(=O)c1ccccc1C(=O)N1CCN(c2nc3ccc(F)cc3s2)C[C@@H]1C" , and I need its recorded AUC.
5340

---

Experiment: Pharmacokinetics study in mice
Type: in vivo, mouse
Settings: C57B6/J, 10 mg/kg; C57 mouse, po 10 mpk, brain
MEASURED QUANTITY: Tmax (min)
Dear colleague, please return just the value in min, with no unit written.

I have this molecule here, CCS(=O)(=O)c1ccccc1C(=O)N1CCN(c2nc3ccc(F)cc3s2)C[C@@H]1C [Compound 8] , and I need its recorded Tmax.
30

---

Experiment: Pharmacokinetics study in mice
Type: in vivo, mouse
Conditions: 3 mg/kg; CD1 mouse, iv 3 mpk, plasma
MEASURED QUANTITY: half-life (min)
Dear colleague, please return just the value in min, with no unit written.

I have this compound here, "CCS(=O)(=O)c1ccccc1C(=O)N1CCN(c2nc3ccc(F)cc3s2)C[C@@H]1C" , and I need its recorded half-life.
53.6

---

Experiment: Pharmacokinetics study in mice
Assay type: in vivo, mouse
Details: 3 mg/kg; CD1 mouse, iv 3 mpk, brain
MEASURED QUANTITY: half-life (min)
Dear colleague, please return just the value in min, with no unit written.

I have this molecule here, CCS(=O)(=O)c1ccccc1C(=O)N1CCN(c2nc3ccc(F)cc3s2)C[C@@H]1C [Compound 8] , and I need its recorded half-life.
43.5

---

Measured solubility at 24 h values are reported for all entries that follow.
Assay: Aqueous kinetic solubility in PBS pH 7.4
Format: physicochemical
Conditions: phosphate-buffered saline (PBS), 25 °C, pH 7.4, aqueous buffer, kinetic from dmso stock, PBS; Table 7
Dear colleague, please return just the value in µM, with no unit written.

COMPOUND | ENDPOINT RESULT
CCCS(=O)(=O)c1ccccc1C(=O)N1CCN(c2nc3ccc(F)cc3s2)C[C@@H]1C [Compound 41] | 76

I have this compound here, C[C@H]1CN(c2nc3ccc(F)cc3s2)CCN1C(=O)c1ccccc1S(=O)(=O)C1CC1 [Compound 42] , and I need its recorded solubility at 24 h.
115

Thanks! And CCS(=O)(=O)c1ccccc1C(=O)N1CCN(c2nc3ccc(F)cc3s2)C[C@@H]1C [Compound 8] ?
139

---

Assay: Pharmacokinetics study in mice
Assay type: in vivo, mouse
Details: 3 mg/kg; CD1 mouse, iv 3 mpk, plasma
MEASURED QUANTITY: Cmax (ng/mL)
Dear colleague, please return just the value in ng/mL, with no unit written.

I have this compound here, "CCS(=O)(=O)c1ccccc1C(=O)N1CCN(c2nc3ccc(F)cc3s2)C[C@@H]1C" , and I need its recorded Cmax.
1810

---

Assay: Pharmacokinetics study in mice
Format: in vivo, mouse
Settings: 3 mg/kg; CD1 mouse, iv 3 mpk, plasma
MEASURED QUANTITY: clearance (mL/min/kg)
Dear colleague, please return just the value in mL/min/kg, with no unit written.

I have this molecule here, "CCS(=O)(=O)c1ccccc1C(=O)N1CCN(c2nc3ccc(F)cc3s2)C[C@@H]1C" , and I need its recorded clearance.
31

---

Experiment: Pharmacokinetics study in mice
Format: in vivo, mouse
Conditions: 3 mg/kg; CD1 mouse, iv 3 mpk, plasma; read-out: AUC
MEASURED QUANTITY: AUC

I have this molecule here, "CCS(=O)(=O)c1ccccc1C(=O)N1CCN(c2nc3ccc(F)cc3s2)C[C@@H]1C" , and I need its recorded AUC.
1550 ng·h/mL

---

Assay: Aqueous kinetic solubility in PBS pH 7.4
Format: physicochemical
Settings: phosphate-buffered saline (PBS), 25 °C, pH 7.4, aqueous buffer, kinetic from dmso stock; Table 11; read-out: Aq. Kinetic Solubility
Measured solubility kinetic at 24 h values are reported for all entries that follow.
Dear colleague, please return just the value in µM, with no unit written.

Before answering, review these 3 worked examples.
CPD SMILES | solubility kinetic at 24 h (µM)
CCS(=O)(=O)c1ccccc1C(=O)N1CCN(c2nc3ccc(Cl)cc3s2)CC1 | 2
CCS(=O)(=O)c1ccccc1C(=O)N1CCN(c2nc3ccccc3s2)CC1 | 196
CCS(=O)(=O)c1ccccc1C(=O)N1CCN(c2nc3ccc(OC)cc3s2)CC1 | 39

Next item in the queue.
I have this molecule here, "CCS(=O)(=O)c1ccccc1C(=O)N1CCN(c2nc3ccc(C)cc3s2)CC1" , and I need its recorded solubility kinetic at 24 h.
181

---

Experiment: Aqueous kinetic solubility in PBS pH 7.4
Type: physicochemical
Conditions: 25 °C, pH 7.4, aqueous buffer, kinetic from dmso stock; Table 10; read-out: Aq. Kinetic Solubility
MEASURED QUANTITY: solubility kinetic (µM)
Dear colleague, please return just the value in µM, with no unit written.

I have this compound here, "O=C(c1ccccc1S(=O)(=O)C1CC1)N1CCN(c2nc3ccc(F)cc3s2)CC1" , and I need its recorded solubility kinetic.
10

Thanks! And "O=C(c1ccccc1S(=O)(=O)CCCO)N1CCN(c2nc3ccc(F)cc3s2)CC1" ?
49

Thanks! And "O=C(c1ccccc1S(=O)(=O)C1CCC1)N1CCN(c2nc3ccc(F)cc3s2)CC1" ?
5

---

Experiment: Pharmacokinetics study in mice
Assay type: in vivo, mouse
Conditions: C57B6/J, 30 mg/kg; C57 mouse, po 30 mpk, brain; read-out: AUC
MEASURED QUANTITY: AUC
Show the value, then the unit it is measured in.

I have this compound here, "CCS(=O)(=O)c1ccccc1C(=O)N1CCN(c2nc3ccc(F)cc3s2)C[C@@H]1C" , and I need its recorded AUC.
3230 ng·h/mL

---

Experiment: Pharmacokinetics study in mice
Assay type: in vivo, mouse
Conditions: C57B6/J, 30 mg/kg; C57 mouse, po 30 mpk, plasma
MEASURED QUANTITY: Cmax (ng/mL)
Dear colleague, please return just the value in ng/mL, with no unit written.

I have this molecule here, CCS(=O)(=O)c1ccccc1C(=O)N1CCN(c2nc3ccc(F)cc3s2)C[C@@H]1C [Compound 8] , and I need its recorded Cmax.
5170

---

Experiment: Pharmacokinetics study in mice
Type: in vivo, mouse
Details: C57B6/J, 30 mg/kg; C57 mouse, po 30 mpk, plasma; read-out: AUC
MEASURED QUANTITY: AUC (µg·h/mL)
Dear colleague, please return just the value in µg·h/mL, with no unit written.

I have this molecule here, CCS(=O)(=O)c1ccccc1C(=O)N1CCN(c2nc3ccc(F)cc3s2)C[C@@H]1C [Compound 8] , and I need its recorded AUC.
46.2

---

Experiment: Pharmacokinetics study in mice
Type: in vivo, mouse
Conditions: 3 mg/kg; CD1 mouse, iv 3 mpk, brain
MEASURED QUANTITY: Tmax

I have this compound here, "CCS(=O)(=O)c1ccccc1C(=O)N1CCN(c2nc3ccc(F)cc3s2)C[C@@H]1C" , and I need its recorded Tmax.
5 min
